Target: HFD300.1 (HFD300-132K) Wild Type
Assay: Eu-ligand saturation binding
pKd: −log10 of the molar value.

- Binder: "Eu-NRG1β1 (ligand) SHLVKCAEKEKTFCVNGGECFMVKDLSNPSRYLCKCPNEFTGDRCQNYVMASFYKHLGIEFMEAE"
  pKd: 8.51
